The reported measurements were obtained from PubChem BioAssay AID1159580.

assay: chemical genetic growth profiling, strain panel (AID 1159580);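 further: tested at 20 µM; growth read once vehicle control cultures reached saturation at 30 °C; 1 = growth at the plate median or of vehicle wells; lower values mean less growth of the strain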; settings: S. cerevisiae deletion strains, growth OD, locus YBR160W, strain CDC28, hits give low values
Hit rate of the full screen: of about 5,500 compounds, about 2,000 (36%) were called active. Roughly 18% stayed inconclusive and do not appear here. The list shows a part of the results.
endpoint-name: normalized growth
Reply briefly: the number, and no unit.

Query (compound): COc1ccc(C2CC(c3ccc(C)cc3C)=NN2C(C)=O)cc1 (configuration not stated) ; field requested: normalized growth
0.995

For "CSc1nnc(COc2ccc(C)c3c2CCC3)n1-c1ccccc1" , what is its reported normalized growth?
0.984

Item under review: "COc1cc(N2C(=O)C=CC2=O)cc(OC)c1OC" . Reported normalized growth?
0.958

Bench note: what normalized growth did "Cc1ccc2nc(-c3ccc([N+](=O)[O-])o3)oc(=O)c2c1" show?
0.231

Report normalized growth for "FC(F)(F)c1cc(-c2ccc(Cl)cc2)n[nH]1" please.
0.922

Query (compound): S=C(N/N=C\c1cccs1)NC1CC2CCC1C2 (configuration not stated) ; field requested: normalized growth
0.954

Param item = "Cc1ccc(OCc2n[nH]c(=S)n2Cc2ccccc2)c2c1CCC2" ; retrieve measured normalized growth.
0.985

* * *

assay: chemical genetic growth profiling, strain panel (AID 1159580);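 further: tested at 20 µM; growth read once vehicle control cultures reached saturation at 30 °C; 1 = growth at the plate median or of vehicle wells; lower values mean less growth of the strain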; conditions: S. cerevisiae deletion strains, growth OD, locus YDR195W, strain ref2
Screen size: about 5,500 compounds; about 2,000 (36%) were called active. Not shown: some 18% with an inconclusive outcome. This is one part of the list.
Task for the reader: assign each of the following compounds its reported normalized growth.

Item "CCOc1ccc(C(=O)c2ccc(OC)c(O)c2O)cc1" has what recorded normalized growth?
1.15 [resistant] (active)

If you can, please state the reported normalized growth value of "COc1ccc2c(=O)ccoc2c1" .
1.08 (inactive)

For the compound shown here, "COc1c2ccoc2cc2oc(C)cc(=O)c12" , give the reported normalized growth.
1.03 (inactive)

Entry CC(=O)[C@@]1(O)CCC2C3CCC4=CC(=O)CC[C@]4(C)C3CC[C@@]21C (stereo partly specified) has what normalized growth?
0.995 (inactive)

Reported normalized growth for O=c1[nH]cnc2c1ncn2C1O[C@H](CO)[C@@H](O)[C@H]1O (stereo partly specified) : what is it?
0.958 (inactive)

# input compound: "CCOc1ccc(NC(C)=O)cc1" ; wanted: its normalized growth
1.02 (inactive)

* * *

assay: chemical genetic growth profiling, strain panel (AID 1159580);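 further: tested at 20 µM; growth read once vehicle control cultures reached saturation at 30 °C; 1 = growth at the plate median or of vehicle wells; lower values mean less growth of the strain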; conditions: S. cerevisiae deletion strains, growth OD, locus YHR200W, strain rpn10, hits give low values
About 2,000 (36%) of roughly 5,500 compounds were called active. Inconclusive results (about 18%) are left out. The list shows a part of the results.
Could you please report measured normalized growth for the items listed next?
Kindly provide the number alone.

// query normalized growth value for entry COc1cc2c(cc1OC)[C@@]13CCN4CC5=CCOC6CC(=O)N2C1[C@H]6[C@H]5C[C@H]43 (some centres not stated)
0.99

Quick check: normalized growth of "CCCc1nc2c(C)cc(-c3nc4ccccc4n3C)cc2n1Cc1ccc(-c2ccccc2C(=O)O)cc1" ?
1

For the compound shown here, NCC1OC(OC2C(CO)OC(OC3C(O)C(N)CC(N)C3OC3OC(CO)C(O)CC3N)C2O)C(N)C(O)C1OC1OC(CO)C(O)C(O)C1O (configuration not stated) , give the reported normalized growth.
0.993

Give the measured normalized growth of "NC[C@H]1O[C@H](O[C@H]2[C@H](O)[C@@H](O[C@H]3O[C@H](CO)[C@@H](O)[C@H](N)[C@H]3O)[C@H](N)C[C@@H]2N)[C@H](N)C[C@@H]1O" .
1.01

Tell me the measured normalized growth of CC(=O)O[C@H]1CC[C@]2(C)C3CC[C@@]4(C)C(CC5O[C@@]6(CCC(C)CO6)[C@@H](C)C54)C3CC[C@H]2C1 (some centres not stated) , please.
0.973

Any idea what its normalized growth is? The compound is "COc1ccc(C(=O)O)c(O)c1OC"
0.997

State the recorded normalized growth for this entry: "O=C(O)[C@H](O)[C@@](O)(Cc1ccc(O)cc1)C(=O)O"
0.996

Given the compound "Cc1onc(-c2ccccc2Cl)c1C(=O)N[C@@H]1C(=O)N2[C@@H]1SC(C)(C)[C@@H]2C(=O)O" , what is its reported normalized growth?
1.03

Could you tell me which normalized growth is on file for C1CCC(C(CC2CCCCN2)C2CCCCC2)CC1 (configuration not stated) ?
0.922

Requested read-out: normalized growth. Entry: "COc1cccc(OC)c1C(=O)N[C@@H]1C(=O)N2[C@@H]1SC(C)(C)[C@@H]2C(=O)O"
0.98

Which normalized growth reading was recorded for the compound "CC1(C)S[C@@H]2[C@H](NC(=O)Cc3ccccc3)C(=O)N2[C@H]1C(=O)O" ?
1.02

Record request: normalized growth value, item CC(=O)O[C@H]1CC[C@]2(C)C3CC(=O)[C@]4(C)C(C(C)=O)=CCC4C3CC[C@H]2C1 (some centres not stated)
1.01

What value of measured normalized growth is listed for "CC(=O)Oc1cccc2c1C(=O)c1c(OC(C)=O)cc(C(=O)O)cc1C2=O" ?
0.354

Consider the compound shown here: C[C@]12CCC(=O)C=C1CCC1C2C(=O)C[C@@]2(C)C1CC[C@]2(O)C(=O)CO (some centres not stated) What is its recorded normalized growth?
0.999

Consider the compound shown here: COC1(C)CCC2OC2(C)CCC2C1CC2(C)C (configuration not stated) What is its recorded normalized growth?
1.02

Which value of normalized growth has been reported for CC1(C)C(=O)[C@@H]2O[C@@H]2[C@@]2(C)C1CC(=O)[C@]1(C)C2CC[C@@]2(C)[C@H](c3ccoc3)OC(=O)[C@H]3O[C@]321 (some centres not stated) in the records?
0.988

Requested read-out: normalized growth. Entry: "COc1cccc(O)c1O"
1

Look up normalized growth: "CCCCc1nc(Cl)c(CO)n1Cc1ccc(-c2ccccc2-c2nn[nH]n2)cc1"
0.999

Recorded normalized growth of "CCOc1ccc(C(=O)c2cc(O)c(OC)c(OC)c2O)cc1" , please.
1.02

Form field: reported normalized growth of "COc1ccc(C(=O)c2ccccc2)c(O)c1O"
0.937

Look up normalized growth: "CCOc1cccc(C(=O)c2ccc(O)c(O)c2O)c1"
0.859

// normalized growth lookup, key: "O=C(OC[C@H]1O[C@H](OC(=O)c2cc(O)c(O)c(OC(=O)c3cc(O)c(O)c(O)c3)c2)[C@H](OC(=O)c2cc(O)c(O)c(OC(=O)c3cc(O)c(O)c(O)c3)c2)[C@@H](OC(=O)c2cc(O)c(O)c(OC(=O)c3cc(O)c(O)c(O)c3)c2)[C@@H]1OC(=O)c1cc(O)c(O)c(OC(=O)c2cc(O)c(O)c(O)c2)c1)c1cc(O)c(O)c(OC(=O)c2cc(O)c(O)c(O)c2)c1"
0.0922
